Measured values drawn from patent US20230002360A1 for this set.

# TESTED TARGET: CCR5 (Homo sapiens, UniProt P51681)
# Construct: expressed in transfected cells; host or cells: HEK293 (clone C13, passage P4)
# Sequence (P51681 whole entry, species assumed): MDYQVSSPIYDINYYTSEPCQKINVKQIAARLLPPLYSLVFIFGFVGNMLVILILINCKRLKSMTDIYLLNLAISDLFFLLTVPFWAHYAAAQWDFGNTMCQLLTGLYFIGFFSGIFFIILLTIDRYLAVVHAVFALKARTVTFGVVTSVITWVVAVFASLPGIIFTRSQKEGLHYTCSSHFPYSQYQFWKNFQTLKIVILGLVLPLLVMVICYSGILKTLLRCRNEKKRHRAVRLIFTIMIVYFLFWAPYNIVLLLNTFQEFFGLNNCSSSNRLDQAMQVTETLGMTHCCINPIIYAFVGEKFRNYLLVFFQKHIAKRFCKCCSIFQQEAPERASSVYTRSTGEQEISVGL
# METHOD: FLIPR calcium assay, CCR5 cell line
# Type: cell-based
# CONDITION NOTES: HEK293 host cell, RANTES agonist, intracellular calcium signal; read-out: IC50 (nM) test results for FLIPR detection, CCR5
REPORTED ENDPOINT: IC50 (nM)

a: CCCCOCCOc1ccc(-c2ccc3c(c2)/C=C(/C(=O)Nc2ccc([S@+]([O-])Cc4c(C)ncn4CC)cc2)CCCCN3CC2COC2)cc1 [WX005]
b: CCCCOCCOc1ccc(-c2ccc3c(c2)/C=C(/C(=O)Nc2ccc([S@+]([O-])Cc4c(C)ncn4CC)cc2)CCCN3CC2COCCO2)cc1 (stereo partly drawn) [WX026]
c: CCCCOCCOc1ccc(-c2ccc3c(c2)/C=C(/C(=O)Nc2ccc([S@+]([O-])Cc4c(C)ncn4CC)cc2)CCCCN3CC2CCCOC2)cc1 (stereo partly drawn) [WX007]
Input: Order them by IC50, ascending: the compounds above. Quick reminder: the answer is the labels in the order asked.
Output: b, a, c

a: CCCCOCCOc1ccc(-c2ccc3c(c2)/C=C(/C(=O)Nc2ccc([S@+]([O-])Cc4c(C)ncn4CC)cc2)CCCN3C[C@H]2CCCO2)cc1 [WX028]
b: CCCCOCCOc1ccc(-c2ccc3c(c2)/C=C(/C(=O)Nc2ccc([S@+]([O-])Cc4c(C)ncn4CC)cc2)CCCN3CC2CCCO2)cc1 (stereo partly drawn) [WX027]
Input: Please tell me which of the two, a or b , has the higher reported IC50 value. Please respond with the label that marks your chosen entry.
Output: a
